These entries and their values trace back to ChEMBL document CHEMBL1201862.

# protocol: NIH3T3 cell viability loss – ATP luminescence, mouse fibroblasts, counter-screen, dose response (AID 2010);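 further: cells exposed to compound for about 90 hours before reading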
# Assay type: functional, cell-based
The source made the active and inactive calls.
Some molecules, each annotated with its measured EC50.
measured.parameter: EC50

molecule	observed.result
COc1cccc(CN2CCCC(CNC(=O)c3ccc(F)cc3)C2)c1OC (centres undefined)	> 60 µM (inconclusive)
CCOc1ccc(N(C)Cc2cc(=O)oc3ccc(OC)cc23)cc1	> 60 µM (not active)
CCC(C)n1ncn(-c2ccc(N3CCN(c4ccc(OCC5COC(Cn6cncn6)(c6ccc(Cl)cc6Cl)O5)cc4)CC3)cc2)c1=O (centres undefined)	> 60 µM (not active)
Cc1nn(S(=O)(=O)c2ccc([N+](=O)[O-])cc2)c(C)c1Sc1ccccc1	> 60 µM (not active)
O=[N+]([O-])c1ccc(CN2CCN(c3ccc(Cl)cc3)CC2)o1	> 60 µM (not active)
O=C(Oc1c(CN2CCOCC2)cc(Cl)c2cccnc12)c1ccc(F)cc1	> 60 µM (not active)
CN(C)c1ccc(C2CNC(c3ccc(Cl)c([N+](=O)[O-])c3)c3[nH]c4ccccc4c32)cc1 (centres undefined)	> 60 µM (not active)
COc1ccc(OC)c(C(c2nnnn2C(C)(C)C)N2CCc3ccccc3C2)c1 (centres undefined)	5.8 µM (active)
CCC(C)NS(=O)(=O)c1ccc(S(=O)(=O)N(CCc2ccc(OC)c(OC)c2)Cc2cccs2)cc1 (centres undefined)	> 60 µM (not active)
CCC(Sc1nc2cc[nH]cc-2n1)C(=O)Nc1ccc(C)c(Cl)c1 (centres undefined)	> 60 µM (not active)
Cc1ccc(-c2c[n+](Cc3cccc(Cl)c3)c3n2CCC3)cc1	> 30 µM (not active)
COc1ccc(C(=O)C[n+]2nc(CNc3ccc(Br)cc3)n3c2CCCCC3)cc1	> 60 µM (not active)
Cc1ccccc1-c1ccc(Nc2ccc(N3CCOCC3)cc2)nn1	> 60 µM (not active)
O=C(CCc1ccccc1)NNc1cc(N2CCCCC2)nc(N2CCCCC2)n1	> 60 µM (not active)

---

# study.target: SUMO-activating enzyme (Homo sapiens, UniProt Q9UBT2)
# Sequence (Q9UBE0 whole entry): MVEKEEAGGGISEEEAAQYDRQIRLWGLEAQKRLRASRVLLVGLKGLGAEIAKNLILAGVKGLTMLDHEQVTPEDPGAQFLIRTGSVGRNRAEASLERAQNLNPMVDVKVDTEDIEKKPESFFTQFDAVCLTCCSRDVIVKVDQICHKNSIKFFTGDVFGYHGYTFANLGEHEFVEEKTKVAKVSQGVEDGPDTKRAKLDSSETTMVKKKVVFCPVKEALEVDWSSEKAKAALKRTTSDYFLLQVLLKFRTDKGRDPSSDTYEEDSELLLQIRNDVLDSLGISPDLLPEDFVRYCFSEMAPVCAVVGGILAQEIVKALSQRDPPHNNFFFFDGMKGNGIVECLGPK
# Sequence (Q9UBT2 whole entry): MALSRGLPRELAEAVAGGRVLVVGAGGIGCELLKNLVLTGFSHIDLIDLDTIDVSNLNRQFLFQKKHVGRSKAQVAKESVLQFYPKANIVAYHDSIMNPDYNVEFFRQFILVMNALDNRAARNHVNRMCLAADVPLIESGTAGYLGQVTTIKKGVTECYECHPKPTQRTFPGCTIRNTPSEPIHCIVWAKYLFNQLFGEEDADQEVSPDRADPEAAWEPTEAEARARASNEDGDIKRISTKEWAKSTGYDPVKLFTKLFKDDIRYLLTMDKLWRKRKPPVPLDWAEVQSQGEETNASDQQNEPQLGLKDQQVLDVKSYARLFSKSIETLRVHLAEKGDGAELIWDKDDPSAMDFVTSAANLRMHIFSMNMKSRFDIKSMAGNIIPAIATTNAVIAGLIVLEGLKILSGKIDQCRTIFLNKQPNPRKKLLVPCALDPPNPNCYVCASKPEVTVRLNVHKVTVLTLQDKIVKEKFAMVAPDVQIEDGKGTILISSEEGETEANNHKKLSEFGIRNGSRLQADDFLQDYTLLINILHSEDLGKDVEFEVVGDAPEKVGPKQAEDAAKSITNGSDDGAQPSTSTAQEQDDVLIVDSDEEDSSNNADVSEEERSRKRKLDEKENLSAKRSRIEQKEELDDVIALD
# protocol: blockers of SAE1/SAE2–UBC9 SUMO transfer – biochemical, HTRF, uHTS, primary screen (AID 2006)
# Format: protein-complex assay
Active and inactive are the calls of the source.

molecule	study.target	IC50
CSc1nnc(-c2ccco2)c(-c2ccco2)n1	SUMO-activating enzyme (Homo sapiens, UniProt Q9UBT2)	15.2 µM (active)
CCN(CC)CCOC(=O)c1ccc(N/C=C(/C#N)c2nc(-c3ccc(OC)c(OC)c3)cs2)cc1	SUMO-activating enzyme (Homo sapiens, UniProt Q9UBT2)	11.7 µM (active)
COc1ccc2[nH]c3c(=O)n(CCCC(=O)NC4CCC(C)CC4)c(=S)[nH]c3c2c1 (stereo unspecified)	SUMO-activating enzyme (Homo sapiens, UniProt Q9UBT2)	22.7 µM (active)
CC(=O)NC1C(=O)N(CCN2CCOCC2)c2ccc(F)cc21 (stereo unspecified)	SUMO-activating enzyme (Homo sapiens, UniProt Q9UBT2)	12.3 µM (active)
O=C(N/N=C/c1ccc(O)c(O)c1)N/N=C/c1ccc(O)c(O)c1	SUMO-activating enzyme (Homo sapiens, UniProt Q9UBT2)	2.11 µM (active)
O=C(N=Nc1c(O)[nH]c2ccc([N+](=O)[O-])cc12)c1ccccc1Cl	SUMO-activating enzyme (Homo sapiens, UniProt Q9UBT2)	20.4 µM (active)

---

# study.target: Dual specificity protein phosphatase 6 (Rattus norvegicus, UniProt Q64346);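 further: confirmatory in vitro dose-response testing of MKP-3 inhibition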;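 further: recombinant His-tagged MKP-3 made in E. coli BL21 with OMFP substrate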
# Sequence (Q64346 whole entry): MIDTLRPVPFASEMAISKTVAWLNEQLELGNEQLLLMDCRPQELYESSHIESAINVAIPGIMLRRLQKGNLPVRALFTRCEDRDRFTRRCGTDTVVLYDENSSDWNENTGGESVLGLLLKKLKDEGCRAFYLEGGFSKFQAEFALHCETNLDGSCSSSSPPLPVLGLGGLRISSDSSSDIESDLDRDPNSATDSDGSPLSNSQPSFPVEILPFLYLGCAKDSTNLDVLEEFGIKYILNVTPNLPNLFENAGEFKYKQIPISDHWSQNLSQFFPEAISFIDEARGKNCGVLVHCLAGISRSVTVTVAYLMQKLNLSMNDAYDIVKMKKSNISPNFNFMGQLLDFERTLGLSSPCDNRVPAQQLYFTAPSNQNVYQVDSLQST
# Type: functional
Active and inactive are the calls of the source.
Some compounds, each annotated with its measured IC50.

compound	study.target	IC50
CSc1nnc(-c2ccco2)c(-c2ccco2)n1	Dual specificity protein phosphatase 6 (Rattus norvegicus, UniProt Q64346)	99.7 µM (active)
CCn1c(=O)n(Cc2ccc([N+](=O)[O-])cc2)c(=O)n([C@@H](Cc2ccccc2)C(=O)O)c1=O	Dual specificity protein phosphatase 6 (Rattus norvegicus, UniProt Q64346)	> 100 µM (inactive)
COc1cc(C(=S)N2CCCCC2)ccc1O	Dual specificity protein phosphatase 6 (Rattus norvegicus, UniProt Q64346)	> 100 µM (inactive)
O=C(O)C1Nc2c(O)cc(Cl)c([N+](=O)[O-])c2C2C=CCC12 (centres undefined)	Dual specificity protein phosphatase 6 (Rattus norvegicus, UniProt Q64346)	35.4 µM (active)

---

# study.target: Protein RecA (Mycobacterium tuberculosis, UniProt P9WHJ3)
# protocol: Fluorescence Cell-Free Homogeneous Dose Retest to Identify Inhibitors of RecA-Intein Splicing Activity. [Related pubchem assays (depositor defined):AID2097, AID2223, AID489010, AID492950]
# Format: functional
Active and inactive are the calls of the source.

compound	EC50
O=C(O)C1Nc2c(O)cc(Cl)c([N+](=O)[O-])c2C2C=CCC12 (stereo unspecified)	11.5 µM (active)
O=C(O)/C=C\C(=O)Nc1ccc(Oc2ccc(Br)cc2)cc1	11 µM (active)
CC(=O)NC1C(=O)N(CCN2CCOCC2)c2ccc(F)cc21 (stereo unspecified)	12.1 µM (active)
O=C(O)CN1C(=O)/C(=C\c2ccc(OC(=O)c3ccco3)cc2)SC1=S	20.3 µM (active)
COc1ccc(NC(=O)Nc2ccc(O)c3ccccc23)cc1	0.722 µM (active)
O=C1C=C(N2CCCCC2)c2ccccc2C1=O	1.25 µM (active)
Cc1nn(-c2ccccc2)c2c1C(c1cccs1)C(C#N)=C(N)O2 (stereo unspecified)	1.83 µM (active)
CSc1nc(-c2ccco2)nn1C(=O)c1cccs1	24.7 µM (active)
Cc1n[nH]c2c1C(c1c(C)nn(C)c1C)C(C#N)=C(N)O2 (stereo unspecified)	4.86 µM (active)
COc1ccc(-n2c(C)cc(C(=O)CCl)c2C)cc1	19 µM (active)
CN1CCN(C(c2ccc(Br)cc2)c2cc(Cl)c3cccnc3c2O)CC1 (stereo unspecified)	3.22 µM (active)

---

Some molecules, each annotated with its measured AC50.
# study.target: FAD-linked sulfhydryl oxidase ALR (Homo sapiens, UniProt P55789)
# Sequence (P55789 whole entry): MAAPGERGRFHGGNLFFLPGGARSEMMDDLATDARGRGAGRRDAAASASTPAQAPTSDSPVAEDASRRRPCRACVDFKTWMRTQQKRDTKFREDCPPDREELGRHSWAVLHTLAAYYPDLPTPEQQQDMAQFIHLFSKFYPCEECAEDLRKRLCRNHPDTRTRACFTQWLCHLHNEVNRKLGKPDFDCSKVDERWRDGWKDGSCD
# protocol: ALR-catalysed DTT oxidation blockers – biochemical, H2O2 detection, luminescence, cherry-pick, dose response (AID 493248)
The source made the active and inactive calls.

molecule	AC50
COc1cccc(C(=O)N2CCCC(Nc3ccc(C)c(C)c3)C2)c1 (stereo not drawn)	7170 nM (active)
Cc1cc(-c2c(C)[nH]n(-c3ccccc3)c2=O)[nH]n1	5410 nM (active)
Cc1nc2ccc(-c3nc4cc(N)ccc4[nH]3)cc2[nH]1	736 nM (active)
Oc1cnnc(Nc2ccc(Nc3ccccc3)cc2)n1	323 nM (active)
COc1cc(C(=O)NCC(c2ccco2)N2CCc3ccccc32)cc(OC)c1OC (stereo not drawn)	5500 nM (active)
CN(C)c1ccc(C(=S)N2CCNCC2)cc1	2180 nM (active)
NNC(=O)CCc1nc2ccc(O)cc2[nH]1	3820 nM (active)
CC12CCC(C(=O)N/N=C/c3ccc(O)cc3)(OC1=O)C2(C)C (stereo not drawn)	99 nM (active)

---

# protocol: alpha-synuclein stem-loop luciferase translation blockers – H4 neuroglioma cells, luminescence, confirmation (AID 1988)
# Type: functional, cell-based
Where a name gives a salt, the structure may show the parent alone. Activity calls are given as the source filed them.

molecule	EC50
Cc1ccc(/C=C/c2nc(O)c3ccccc3n2)cc1	4.45 µM (inconclusive)
COc1ccc(-n2nc(C(=O)NCC(=O)N3CCN(Cc4ccc5c(c4)OCO5)CC3)c3ccccc3c2=O)cc1OC	> 120 µM (not active)
Cc1cc2c(c(=O)n1C1CC1)C(c1cccc(Cl)c1)C(C#N)=C(N)O2 (stereo unspecified)	> 120 µM (not active)
CC[C@]1(O)CC2CN(CCc3c([nH]c4ccccc34)[C@@](C(=O)OC)(c3cc4c(cc3OC)N(C=O)[C@H]3[C@@](O)(C(=O)OC)[C@H](OC(C)=O)[C@]5(CC)C=CCN6CC[C@]43[C@@H]65)C2)C1 (stereo partly specified) [VINCRISTINE SULFATE]	< 0.1 µM (active)
CCN(CC)c1nc(Nc2ccc(Cl)cc2)nc(OCC#N)n1	16 µM (active)
CC1(C)Cc2c(sc3c2c(=N)n(Cc2ccco2)c(=O)n3Cc2ccc(Cl)cc2)CO1	13.8 µM (active)

---

# study.target: Intestinal-type alkaline phosphatase (Homo sapiens, UniProt P09923)
# Sequence (P09923 whole entry): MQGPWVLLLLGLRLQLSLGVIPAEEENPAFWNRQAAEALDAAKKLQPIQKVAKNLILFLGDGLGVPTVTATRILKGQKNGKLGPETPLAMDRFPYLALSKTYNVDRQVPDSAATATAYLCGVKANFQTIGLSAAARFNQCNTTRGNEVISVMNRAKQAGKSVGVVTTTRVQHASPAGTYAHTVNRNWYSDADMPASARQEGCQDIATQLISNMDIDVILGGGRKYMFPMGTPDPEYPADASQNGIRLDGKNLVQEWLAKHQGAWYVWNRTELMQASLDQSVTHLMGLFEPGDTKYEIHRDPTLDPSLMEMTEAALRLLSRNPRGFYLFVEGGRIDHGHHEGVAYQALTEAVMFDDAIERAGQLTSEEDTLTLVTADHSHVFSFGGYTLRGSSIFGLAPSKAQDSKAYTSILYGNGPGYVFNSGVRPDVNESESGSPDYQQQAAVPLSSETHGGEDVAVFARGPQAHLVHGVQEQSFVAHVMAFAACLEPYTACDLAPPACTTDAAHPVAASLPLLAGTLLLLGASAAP
# protocol: activation of human intestinal alkaline phosphatase – biochemical, dose response (AID 488873)
# Format: functional
Calls of active or inactive are those of the source.
Classes used: yes for active, no for inactive

item.smiles	group.label
O=C(CSc1nnc(-c2ccccc2)[nH]1)c1ccc(O)c(O)c1	yes
O=C(CCO)c1ccc(O)cc1	yes
COc1ccccc1CNC(=O)CCNS(=O)(=O)c1ccc2[nH]c(=O)oc2c1	yes
O=C(N/N=C/c1ccc(O)c(O)c1)N/N=C/c1ccc(O)c(O)c1	yes
CCn1nc(C)c(CN2CCC(C(=O)Nc3cccc(-c4cccc(F)c4)c3)CC2)c1C	no
